TARGET_OR_TEST_SYSTEM: T1, platelet-derived growth factor (PDGF)-BB (human, UniProt P01127 82-190)
T1 construct: mature; Purchased in mature form
T1 sequence (P01127 82-190): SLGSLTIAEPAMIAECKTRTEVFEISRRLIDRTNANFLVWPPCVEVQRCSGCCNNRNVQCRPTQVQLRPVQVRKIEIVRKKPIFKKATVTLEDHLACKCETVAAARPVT
ASSAY_TEXT: ELISA, HBD peptides
RESULT_TYPE: binding result

                                     binder    reported
0  YIGLKDRKRPSELQRIASQVKYA (The entry already carries the substitution) [vWF A1 HBD R1341Q]  no binding
1  YIGLKDRKRPSELLRIASQVKYA (The entry already carries the substitution) [vWF A1 HBD R1341L]  no binding
2  YIGLKDRKRPSELPRIASQVKYA (The entry already carries the substitution) [vWF A1 HBD R1341P]  no binding
3  YIGLKDRKRPSELSRIASQVKYA (The entry already carries the substitution) [vWF A1 HBD R1341S]  no binding
4  YIGLKDRKRPSELWRIASQVKYA (The entry already carries the substitution) [vWF A1 HBD R1341W]  no binding
